- method: qHTS for Inhibitors of the Functional Ribonucleoprotein Complex (vRNP) of Lymphocytic Choriomeningitis Arenaviruses (LCMV): Viability assay - alamar blue signal for LCMV Primary Screen (AID 1347085); further: nearly all actives have a fitted effect of over 80% in size
- measurement conditions: alamar blue viability counter-screen, LCMV vRNP screen cells; series mostly up to 57.5 µM
Records with an inconclusive call do not appear. Activity calls are given as the source filed them. The call rests on the fitted dose curve; tested in HEK293 reporter line.
// one of active, inactive, no free text

// known answers, use as guide
>>> assigned_category("Clc1ccccc1CN1CCc2sccc2C1")
"inactive"
>>> assigned_category("COc1ccccc1O")
"inactive"
>>> assigned_category("Cc1ccccc1-n1c(Cn2ncc3c(N)ncnc32)nc2cccc(C)c2c1=O")
"active"
>>> assigned_category("Cc1cn2c(-c3cn[nH]c3)cnc2c(Nc2ccc(C(=O)N3CCNCC3)cc2F)n1")
"active"
>>> assigned_category("Nc1ccc(S(=O)(=O)Nc2ccccc2)cc1")
"inactive"
>>> assigned_category("CC1=C(CO)C(=O)O[C@@H]([C@@H](C)[C@H]2CC[C@H]3[C@@H]4C[C@H]5O[C@]56[C@@H](O)C=CC(=O)[C@]6(C)[C@@H]4CC[C@]23C)C1")
"active"
>>> assigned_category("C[N+](C)(C)CC(=O)O")
"inactive"
>>> assigned_category("C[C@]12CCC(=O)C(O)=C1CC[C@@H]1[C@H]3CCC(=O)[C@@]3(C)CC[C@@H]12")
"inactive"

Could you check what this test reported for "COc1ccccc1-c1cccc(-c2c(O)c3cc(C#N)c(Cl)cc3[nH]c2=O)c1" ?
inactive

# fetch the recorded call for "CCOc1ccc(Cc2cc([C@@H]3O[C@H](CO)[C@@H](O)[C@H](O)[C@@H]3O)ccc2Cl)cc1" here
inactive

Test call, this molecule: "O=C(O)c1cc(Oc2ccc(C(F)(F)F)cc2Cl)ccc1[N+](=O)[O-]"
inactive

Could you please tell me the result logged for "COC(=O)Nc1ccc(-c2nc(N3CCOCC3)c3cnn(C4CCN(C(=O)OC)CC4)c3n2)cc1" in this assay?
inactive

Just curious, what result did "CN(C)CCN(C)C(=O)c1ccc(NC(=O)Nc2ccc(-c3nc(N4CCOCC4)c4ccn(CC(F)(F)F)c4n3)cc2)cc1" get here?
active

I would be grateful if you could indicate the recorded call for "Cn1cc(-c2[nH]c3cc(NC(=O)[C@H](N)C4CCCCC4)cc4c3c2C=NNC4=O)cn1" .
active

Record request — test call for "CC(=O)Oc1ccccc1C(=O)O"
inactive

Recorded call for "O=C(NCCS(=O)(=O)c1ccc(C(F)(F)F)cn1)c1ccc(Cl)cc1" ?
inactive

Hi, sorry to bother you, what did the test record for "Cc1cccc(C)c1NC(=O)c1ccc(N)cc1" ?
inactive

Hi team, can someone confirm the assay call for C=CCN1CC[C@]23CCCCC2[C@H]1Cc1ccc(O)cc13 (stereo partly specified) ?
inactive

How was "CC(C)(C)c1cnc(CSc2cnc(NC(=O)C3CCNCC3)s2)o1" classified in this test?
active

For "COc1ncc(-c2ccc3nccc(-c4ccnnc4)c3c2)cc1NS(=O)(=O)c1ccc(F)cc1F" , which call appears in the assay record?
active

Returns: the outcome recorded for "C[C@@H]1[C@H](O)[C@@H](C)C=CC=CCCC=CC=CC=CC=C[C@H](O[C@H]2O[C@@H](C)[C@H](O)[C@@H](N)[C@@H]2O)CC2O[C@](O)(C[C@@H](O)[C@H](O)CC[C@@H](O)C[C@@H](O)C[C@@H](O)CC(=O)O[C@H]1C)C[C@H](O)[C@H]2C(=O)O" in this assay.
inactive

For "Cc1c(CN2CCN(C(=O)C(C)C)CC2)sc2c(N3CCOCC3)nc(-c3cnc(N)nc3)nc12" , what call appears in the results of this test?
active

Each molecule tested received a call. Report the one for "O=C(Nc1ccc(Oc2ccc(Cl)cc2)c(Cl)c1)c1cc(I)cc(I)c1O" .
inactive

Tell me the assay call for "O=C(O)CCCOc1ccc(Cl)cc1Cl" please.
inactive

Name the outcome recorded for "CCNC(=O)c1noc(-c2cc(C(C)C)c(O)cc2O)c1-c1ccc(CN2CCOCC2)cc1" in the assay.
active

Called result for "Nc1c(Cl)c(Cl)c(Cl)c(Cl)c1Cl"
inactive

Which result was noted for this molecule in the test: "O=[N+]([O-])c1ccc([As](=O)(O)O)cc1"
inactive

Which outcome was assigned to "c1cc2c(cc1[C@H]1OC[C@H]3[C@H]1CO[C@H]3c1ccc3c(c1)OCO3)OCO2" in this test?
inactive

Hi, do you know how "CN(C(=O)C(Cl)Cl)c1ccc(OC(=O)c2ccco2)cc1" came out in this test?
inactive

What did the test return for "Nc1ccccc1NC(=O)c1ccc(CNc2nccc(-c3cccnc3)n2)cc1" ?
active

Give the logged outcome of this assay for the following molecule: "CC(C)N(CCNC(=O)CN1CCCC1=O)C(C)C"
inactive

Could you please tell me the result logged for "CC(C)(C)c1nnc(NS(=O)(=O)c2ccccc2)s1" in this assay?
inactive
